# switch fluorescence ratio listing for each entry below
System: ATP;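 also: ATP exposure 15 min at 22 °C before imaging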
Experiment: switch fluorescence ratio, 500 uM ATP over buffer (Cy3 cluster intensity, sum of 5 cycles each) (fold (ratio)); higher = stronger signal-on switching upon ATP binding; sequences stand for … in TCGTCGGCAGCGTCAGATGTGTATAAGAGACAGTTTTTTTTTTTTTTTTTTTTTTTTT…TC
Conditions: aptamer strand: ATP DNA aptamer (quencher-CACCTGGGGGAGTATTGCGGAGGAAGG + anchor), 100 nM annealed; ATP concentration: 500 uM
Output spec: single numeric token, no unit.

Consider the reported switch fluorescence ratio for these sequences:
| sequence.content | observed.value |
| --- | --- |
| TAATTTTAAT | 1.03 |
| TTTGATGAGT | 1.01 |
| TAATGGGCGA | 0.976 |
| AAATGGGGAA | 1 |
| CCGATTGGCA | 1.55 |

What measured switch fluorescence ratio goes with TTTGCAATTG ?
1.13

What measured switch fluorescence ratio goes with CTCTTTCTAC ?
2.05

What measured switch fluorescence ratio goes with TCAATGGGGC ?
0.979

What measured switch fluorescence ratio goes with TATGGGACTC ?
1.03

What measured switch fluorescence ratio goes with TAAAACCAGT ?
1.04

What measured switch fluorescence ratio goes with TTGATAAAGG ?
1.02

What measured switch fluorescence ratio goes with CGGTTCGCGA ?
1.03

What measured switch fluorescence ratio goes with ATGGGTATTG ?
1.01

###

Test system: ATP;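 also: ATP exposure 15 min at 22 °C before imaging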
Experiment: switch fluorescence ratio, 500 uM ATP over buffer (Cy3 cluster intensity, sum of 5 cycles each) (fold (ratio)); higher = stronger signal-on switching upon ATP binding; sequences stand for … in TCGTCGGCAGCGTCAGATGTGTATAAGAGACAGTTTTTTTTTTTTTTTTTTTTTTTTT…TC
Conditions: aptamer strand: ATP DNA aptamer (quencher-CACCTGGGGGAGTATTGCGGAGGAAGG + anchor), 100 nM annealed; ATP concentration: 500 uM
Quick rule for you: switch fluorescence ratio at 1 or higher means yes (1), lower means no (0).

| sequence.content | label.class |
| --- | --- |
| AAGTTTTCCG | no (0) |
| GCGAAAGGAA | yes (1) |
| GCCGTAGCTC | yes (1) |
| GGCTACTGGA | yes (1) |
| AGCTGTACGG | yes (1) |
| TTTTTCAATC | yes (1) |

Form field: switch fluorescence ratio at least 1? Entry: AGAGGGGTAT
yes (1)

Form field: switch fluorescence ratio at least 1? Entry: AACGAAACTT
yes (1)

Form field: switch fluorescence ratio at least 1? Entry: TAAAACAGGA
no (0)

###

# switch fluorescence ratio listing for each entry below
Tested on: ATP;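 also: ATP exposure 15 min at 22 °C before imaging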
Test: switch fluorescence ratio, 500 uM ATP over buffer (Cy3 cluster intensity, sum of 5 cycles each) (fold (ratio)); higher = stronger signal-on switching upon ATP binding; sequences stand for … in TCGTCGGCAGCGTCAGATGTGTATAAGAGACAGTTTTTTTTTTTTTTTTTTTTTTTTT…TC
Conditions: aptamer strand: ATP DNA aptamer (quencher-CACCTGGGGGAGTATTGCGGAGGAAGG + anchor), 100 nM annealed; ATP concentration: 500 uM
Output spec: single numeric token, no unit.

Consider the reported switch fluorescence ratio for these sequences:
| sequence.content | measurement.target | observed.value |
| --- | --- | --- |
| TTGCTCCCAC | ATP | 1.62 |
| CACCCGGCGC | ATP | 1.17 |
| ACAGGAAGAT | ATP | 1.03 |
| AGATATTTTT | ATP | 0.975 |

What measured switch fluorescence ratio goes with ACTTCAGGGA ?
1.01

What measured switch fluorescence ratio goes with ACCAATTGGT ?
1.02

What measured switch fluorescence ratio goes with TATGAAAAGT ?
0.993
